assay: Drug level in mouse plasma at 30 mg/kg, po after 1 hr; assay type: ADME, organism-based; set-up: dose 30 mg/kg, route oral
Quantity Measured: concentration at 1 h (µM)

A. CCN1CCN(c2cc3[nH]c(S[C@]4(C)CC[C@@H](N(C)C(C)=O)CC4)nc3cc2Cl)CC1
B. CCN1CCN(c2cc3[nH]c(S[C@]4(C)CC[C@@H](NC(=O)OC)CC4)nc3cc2Cl)CC1
Between the entries labelled A and B , which has a larger concentration at 1 h value on record? // respond with label for picked entry B
(B: 22.2 µM, A: 4.56 µM)

* * *

target: Mu-type opioid receptor (Homo sapiens); assay: Displacement of [3H]diprenorphin from human mu opioid receptor expressed in CHO cells
Sequence (P35372 whole entry): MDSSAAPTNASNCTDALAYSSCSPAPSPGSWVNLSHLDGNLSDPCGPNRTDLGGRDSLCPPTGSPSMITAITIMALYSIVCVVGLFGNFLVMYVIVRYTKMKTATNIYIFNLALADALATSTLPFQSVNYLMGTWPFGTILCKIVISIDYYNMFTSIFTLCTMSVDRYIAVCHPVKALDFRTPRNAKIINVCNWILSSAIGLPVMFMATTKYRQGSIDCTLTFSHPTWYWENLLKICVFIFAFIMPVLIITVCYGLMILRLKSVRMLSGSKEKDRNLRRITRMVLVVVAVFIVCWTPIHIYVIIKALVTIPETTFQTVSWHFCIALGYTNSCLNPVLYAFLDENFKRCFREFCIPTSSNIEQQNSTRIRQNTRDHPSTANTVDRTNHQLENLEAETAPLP
Quantity Measured: IC50

// returns reported IC50 for input `CCN1CCN(c2cc3[nH]c(C(=O)[C@]4(C)CC[C@@](C)(O)CC4)nc3cc2Cl)CC1` > 10 µM
